Values were extracted from DBAASP.

Test system: Staphylococcus aureus NCTC 10788
Readout type: MIC

[Q] Note MIC for the compound shown: CC(C)C[C@H](NC(=O)[C@H](CC(C)C)NC(=O)[C@H](CC(C)C)NC(=O)[C@@H]1CCCN1C(=O)[C@H](CC(C)C)NC(=O)[C@@H](N)Cc1ccccc1)C(=O)N[C@@H](CO)C(=O)N[C@@H](C)C(=O)N[C@@H](CC(C)C)C(=O)N1CCC[C@H]1C(=O)N[C@@H](CO)C(=O)N[C@@H](Cc1ccccc1)C(=O)N[C@@H](CC(C)C)C(=O)N[C@H]1CSSC[C@@H](C(=O)O)NC(=O)[C@H](CCCCN)NC(=O)[C@H](CCCCN)NC(=O)[C@H](Cc2ccccc2)NC(=O)[C@H](C(C)C)NC(=O)[C@H](CC(C)C)NC1=O [FLPLLLSALPSFLCLVFKKC]
[A] ≥ 32 µM
